Please go through the items and note down their log10 of IC50.
System: A2780 CisR (Homo sapiens)
Experiment: cells
Conditions: 72 h
Scale: log10; quantity: IC50; unit before log: µM

Sample records with log10 of IC50:
# MOL_SMILES, PROPERTY, RECORDED_RESULT
data = [
    ("O=C(CCCCCONC(=O)Nc1cnc2ccccc2c1)NO", "log10 of IC50", 1.06),
    ("Cc1cccc(C(=O)NOCCCCCC(=O)NO)c1", "log10 of IC50", 0.35),
    ("O=C(CCCCCONC(=O)Nc1ccccc1)Nc1ccccc1O", "log10 of IC50", 1.93),
    ("O=C(CCCCCONC(=O)c1ccc(F)cc1)NO", "log10 of IC50", 1.78),
    ("Nc1ccccc1NC(=O)CCCCCONC(=O)Nc1ccccc1", "log10 of IC50", 1.94),
    ("O=C(CCCCONC(=O)Nc1ccccc1)NO", "log10 of IC50", 1.55),
]

Below are 3 compounds. Give each one its log10 of IC50.
1. O=C(CCCCCONC(=O)c1ccccc1)NO
2. O=C(CCCCCONC(=O)Nc1cccc2ccccc12)NO
3. Cc1ccc(C(=O)NOCCCCCC(=O)NO)cc1C

1. 0.76
2. 0.90
3. 0.25
